Assay: reduced mouse 2C T cell binding to pMHC/ICAM-1 vesicles – MLPCN validation set, flow cytometry, LFA-1/ICAM-1 modulator project, pilot screen (AID 2523)
Details: 2C mouse CD8+ T cells, at 7 µM, stronger effect = lower value; measured here: CD8+/vesicle+ event percentage
endpoint: double positive events (%)
Form entry: value (%) — number only.

Quick note, double positive events for CCOC(=O)n1c(=O)oc2ccccc21 landed at 62.5

* * *

Each entry below carries its reported GFP response, % of DMSO.
Experiment: yeast AGP1-GFP level changes, GLN3 branch – cell-based, multiplex flow cytometry, S. cerevisiae, primary screen (AID 1887);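 further: AGP1-GFP fusion strain of S. cerevisiae within a five-strain barcoded multiplex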
Settings: 3 h, at 10 µM, stronger effect = higher value
Records with an inconclusive call do not appear.
Form entry: value (%) — number only.

These recorded examples may help you get a feel for the data.
compound="CCOC(=O)C1(Cc2cccc(Cl)c2)CCCN(C2CCN(C(C)=O)CC2)C1 (stereo not given)" endpoint="GFP response, % of DMSO" observed_result=100
compound="O=C(OCC(O)C(O)COC(=O)c1ccccc1)c1ccccc1 (stereo not given)" endpoint="GFP response, % of DMSO" observed_result=107
compound=CSc1cccc(NC(=O)/C=C/c2ccccc2)c1 endpoint="GFP response, % of DMSO" observed_result=80.5

Quick note, GFP response, % of DMSO for CSCCC(NC(C)=O)C(=O)Oc1ccc2c3c(c(=O)oc2c1)CCCC3 (stereo not given) landed at 100

Quick note, GFP response, % of DMSO for CC(=O)OC[C@H]1O[C@@H](Sc2cccc3cccnc23)[C@H](OC(C)=O)[C@@H](OC(C)=O)[C@H]1OC(C)=O landed at 94.6

Quick note, GFP response, % of DMSO for O=C1[C@@H]2[C@H](Cc3ccc(O)cc3)N[C@]3(C(=O)Nc4ccccc43)[C@@H]2C(=O)N1c1ccc(F)cc1 landed at 91.9

Quick note, GFP response, % of DMSO for COc1ccc(CNC(=O)N[C@H](C(=O)O)C(C)C)cc1OC landed at 89.8

Quick note, GFP response, % of DMSO for O=C(CS(=O)(=O)Cc1ccccc1)NCc1ccc2c(c1)OCO2 landed at 95.2

Quick note, GFP response, % of DMSO for CCNC(=S)N1CCN(CCN2C(=O)c3cccc4cccc(c34)C2=O)CC1 landed at 107

Quick note, GFP response, % of DMSO for Cc1ccc2[nH]c3c(=O)n(CCc4cnc[nH]4)cnc3c2c1 landed at 103

* * *

Experiment: AML differentiation inducers, ER-HoxA9 marrow cells – cell-based, GFP/MAC1 double positive, flow cytometry, validation set, primary screen (AID 588685);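 further: compound exposure lasts four days before antibody staining and flow analysis; 0% = DMSO wells and 100% = 5 µM fulvestrant positive control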
Conditions: stronger effect = higher value, normalized: vehicle 0, fulvestrant 100
endpoint: differentiation response (%)
Form entry: value (%) — number only.

Quick note, differentiation response for Cc1nnc(SCC2=C(C(=O)O)N3C(=O)[C@@H](NC(=O)Cn4cnnn4)[C@H]3SC2)s1 landed at -7.94

Quick note, differentiation response for O=C(O)c1ccccc1OCCOc1ccccc1 landed at 34.6

Quick note, differentiation response for CC(=O)OC1c2c(ccc3ccc(=O)oc23)OC(C)(C)C1OC(=O)CC(C)C (stereo unspecified) landed at -3.67

Quick note, differentiation response for CC[C@]1(O)CC2CN(CCc3c([nH]c4ccccc34)[C@@](C(=O)OC)(c3cc4c(cc3OC)N(C=O)[C@H]3[C@@](O)(C(=O)OC)[C@H](OC(C)=O)[C@]5(CC)C=CCN6CC[C@]43[C@@H]65)C2)C1 (stereo partly specified) landed at 4

Quick note, differentiation response for CSCC[C@H](NC(=O)Nc1ccc(C)cc1C)C(=O)O landed at -7.2

Quick note, differentiation response for O=C1C(=O)c2ccccc2C(O)=C1c1ccccc1F landed at 14.1

Quick note, differentiation response for Cc1coc2cc3oc(=O)c(CCC(=O)O)c(C)c3cc12 landed at -2.4

Quick note, differentiation response for CCOc1ccc2[nH]c3c(=O)n(CCc4ccc(OC)cc4)cnc3c2c1 landed at 29.6

Quick note, differentiation response for O=C(Nc1cccc(C(=O)O)c1)/C(=C\c1ccccc1)NC(=O)c1ccccc1 landed at 11

Quick note, differentiation response for COC(=O)C1=C(C)N(C)C(=S)NC1c1ccc(Cl)cc1 (stereo unspecified) landed at -10.4

Reference for the values: PubChem BioAssay
